Target: T1, human CEA on cells (MKN45, LOVO, NCI-H2122, LS174T, CT26/CEA) (human, UniProt P06731 35-685)
T1 construct: Full-length human CEA, endogenous on tumour cell lines or transduced; also called native CEA on living cells; huCEA surface protein
T1 sequence: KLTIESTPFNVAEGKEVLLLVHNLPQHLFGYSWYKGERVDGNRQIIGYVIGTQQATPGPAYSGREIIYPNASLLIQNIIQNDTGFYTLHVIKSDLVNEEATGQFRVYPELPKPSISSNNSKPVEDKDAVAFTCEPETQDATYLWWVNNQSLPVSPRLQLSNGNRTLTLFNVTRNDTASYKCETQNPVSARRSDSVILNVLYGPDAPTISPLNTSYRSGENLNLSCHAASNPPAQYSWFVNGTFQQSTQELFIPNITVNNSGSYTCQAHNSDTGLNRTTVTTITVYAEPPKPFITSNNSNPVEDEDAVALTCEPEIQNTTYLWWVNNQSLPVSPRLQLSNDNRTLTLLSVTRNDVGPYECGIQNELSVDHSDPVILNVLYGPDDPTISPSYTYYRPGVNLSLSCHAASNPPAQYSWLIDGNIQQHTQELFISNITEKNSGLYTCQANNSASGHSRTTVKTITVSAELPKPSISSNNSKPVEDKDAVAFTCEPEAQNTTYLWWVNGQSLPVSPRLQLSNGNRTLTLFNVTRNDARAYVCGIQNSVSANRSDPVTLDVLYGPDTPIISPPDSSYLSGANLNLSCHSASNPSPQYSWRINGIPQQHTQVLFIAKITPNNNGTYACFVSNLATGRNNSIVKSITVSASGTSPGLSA
Experiment: flow cytometry on MKN45 cells
Endpoint: Top
Note: the reply should be a number with no unit written.

Previously resolved entries follow.
1. BGA6710 variant Y57D (antibody, V domains shown, IgG format; change in the heavy chain) VH: QVQLVQSGAEVKKPGASVKVSCKASGYIFTSYYLHWVRQAPGQGLEWIGYINPQTGDTSYAQKFQGRVTMTRDTSTSTVYMELSSLRSEDTAVYYCAREYGNYNYPLDYWGQGTLVTVSS VL: DIQMTQSPSSLSASVGDRVTITCRASENQYGYLAWYQQKPGKVPKLLIYNYKNLVEGVPSRFSGSGSGTDFTLTISSLQPEDVATYYCQHHLGTPYTFGQGTKVEIK	949
2. BGA6710 variant Q54E, Y57E (antibody, V domains shown, IgG format; both changes in the heavy chain) VH: QVQLVQSGAEVKKPGASVKVSCKASGYIFTSYYLHWVRQAPGQGLEWIGYINPETGETSYAQKFQGRVTMTRDTSTSTVYMELSSLRSEDTAVYYCAREYGNYNYPLDYWGQGTLVTVSS VL: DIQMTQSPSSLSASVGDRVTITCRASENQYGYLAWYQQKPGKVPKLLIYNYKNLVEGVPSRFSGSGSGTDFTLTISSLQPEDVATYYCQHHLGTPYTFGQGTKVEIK	927

The record that follows has no Top shown yet.
Using the record for BGA6710 variant L92E, Y57K (antibody, V domains shown, IgG format) VH: QVQLVQSGAEVKKPGASVKVSCKASGYIFTSYYLHWVRQAPGQGLEWIGYINPQTGKTSYAQKFQGRVTMTRDTSTSTVYMELSSLRSEDTAVYYCAREYGNYNYPLDYWGQGTLVTVSS VL: DIQMTQSPSSLSASVGDRVTITCRASENQYGYLAWYQQKPGKVPKLLIYNYKNLVEGVPSRFSGSGSGTDFTLTISSLQPEDVATYYCQHHEGTPYTFGQGTKVEIK , state its measured Top.
970
